All values here come from ChEMBL document CHEMBL1130716.

biological target: Somatostatin receptor type 5 (Homo sapiens, UniProt P35346); experiment: Compound was tested for inhibition of specific [125I]Tyr11-SRIF binding to human recombinant SST5 (somatostatin) receptor expressed in CHO-K1 cells; assay type: cell-based
Sequence (P35346 whole entry): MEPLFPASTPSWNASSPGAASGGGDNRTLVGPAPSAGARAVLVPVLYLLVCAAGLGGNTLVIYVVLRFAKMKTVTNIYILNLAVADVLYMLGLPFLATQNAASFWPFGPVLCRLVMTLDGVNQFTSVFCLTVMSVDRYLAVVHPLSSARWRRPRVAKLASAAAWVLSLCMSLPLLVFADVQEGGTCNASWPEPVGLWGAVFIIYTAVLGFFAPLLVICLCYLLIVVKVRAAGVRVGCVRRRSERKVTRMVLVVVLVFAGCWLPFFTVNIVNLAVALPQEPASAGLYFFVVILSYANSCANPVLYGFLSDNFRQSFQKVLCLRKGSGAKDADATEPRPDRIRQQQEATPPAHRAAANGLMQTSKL
reported metric: IC50 (nM)
Enter your answer as a number in nM; do not include the unit.

                                   compound  reported_metric  val
0  O=C1[C@H](Cc2cccc3ccccc23)N(CCC#Cc2ccccc2)C(=O)N1CCN1CCCC1             IC50  398

// IC50 value for NCCCC[C@@H](NC(=O)CC1SC(c2ccccc2)N([C@@H](Cc2ccc(-c3ccccc3)cc2)C(N)=O)C1=O)C(N)=O (stereo not given in full) : 1410

// IC50 value for O=C1[C@H](Cc2ccc(OCc3ccccc3)cc2)N(CCC#Cc2ccccc2)C(=O)N1CCN1CCCC1 : 316

// IC50 value for O=C1[C@H](Cc2ccc(OCc3ccccc3)cc2)N(CCCCc2ccccc2)C(=O)N1CCN1CCCC1 : 316

// IC50 value for COc1ccc(CCCCN2C(=O)N(CCN3CCCC3)C(=O)[C@@H]2Cc2ccc(OCc3ccccc3)cc2)cc1 : 501
